MEASURED_ON: human NPY Y5 receptor (Homo sapiens, UniProt Q15761)
Construct: expressed in transfected cells
Sequence (Q15761 1-445): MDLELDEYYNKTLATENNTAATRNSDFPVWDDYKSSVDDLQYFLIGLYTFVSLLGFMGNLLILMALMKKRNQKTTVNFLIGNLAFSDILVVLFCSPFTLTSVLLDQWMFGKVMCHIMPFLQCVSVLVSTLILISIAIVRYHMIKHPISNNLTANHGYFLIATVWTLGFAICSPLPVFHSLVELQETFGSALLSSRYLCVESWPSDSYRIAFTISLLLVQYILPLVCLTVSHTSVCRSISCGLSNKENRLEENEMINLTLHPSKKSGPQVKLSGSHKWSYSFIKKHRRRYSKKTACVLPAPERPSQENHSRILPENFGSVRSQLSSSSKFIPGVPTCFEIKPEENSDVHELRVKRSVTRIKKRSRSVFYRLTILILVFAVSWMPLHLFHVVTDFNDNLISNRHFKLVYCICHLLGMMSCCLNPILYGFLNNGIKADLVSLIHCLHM
TEST_PROTOCOL: Affinity for NPY Y5 receptor ([125I] peptide YY binding, CHO cell membranes)
EXPERIMENTAL_CONDITIONS: inhibition of specific [125I] peptide YY binding, membranes of CHO cells expressing NPY Y5 receptor
PARAMETER: IC50 (nM)
One number for each entry, in nM.

These recorded examples may help you get a feel for the data.
CC(C)(C)S(=O)(=O)NC1CCC(C(=O)Nc2ccc(-c3csnn3)cc2)CC1 (stereo not shown) | 0.59
CC(C)(C)S(=O)(=O)NC1CCC(C(=O)Nc2ccc3c(c2)CCC3=NO)CC1 (stereo not shown) | 7.2
CC(C)(C)S(=O)(=O)NC1CCC(C(=O)Nc2cccc(O)c2)CC1 (stereo not shown) | 2.3

Now let's try a different one.
Return reported IC50; argument: CC(C)S(=O)(=O)NC1CCC(C(=O)Nc2ccc(C(F)(F)F)cc2)CC1 (stereo not shown)
1
